Sourced from patent US8217042B2

- target.entity: Erk2
- Construct: in some cases as full-length kinases, in some cases as truncated fragments
- Sequence (P63085 whole entry, the tested form may be a part): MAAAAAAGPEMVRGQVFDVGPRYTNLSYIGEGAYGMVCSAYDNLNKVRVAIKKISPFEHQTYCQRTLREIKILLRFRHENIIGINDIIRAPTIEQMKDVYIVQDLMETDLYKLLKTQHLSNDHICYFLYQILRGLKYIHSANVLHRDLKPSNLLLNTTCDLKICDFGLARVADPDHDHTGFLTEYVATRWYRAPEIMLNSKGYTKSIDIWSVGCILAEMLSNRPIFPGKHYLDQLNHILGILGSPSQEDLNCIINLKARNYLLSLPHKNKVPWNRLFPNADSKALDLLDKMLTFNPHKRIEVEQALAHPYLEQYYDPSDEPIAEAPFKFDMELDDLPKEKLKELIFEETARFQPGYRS
- assay.summary: Cell-free kinase assay (ALPHA technology), Erk2-ALPHA
- stated.conditions: 10 μM ATP, recombinant human kinase
Counter-ions that a name gives are not always drawn.
reported.endpoint: IC50 (µM)

                                   molecule  qualifier_symbol  numeric_result
0  CCOP(=O)(CCCCNC(=O)Nc1ccc2ncc(-c3ccc(O)c(OC)c3)nc2n1)OCC                 =             2.8
1  CCNC(=O)Nc1ccc2ncc(-c3ccc(NC(=O)OC(C)(C)C)cc3)nc2n1                 >             100
2  COCCOC(=O)Oc1ccc(-c2cnc3ccc(NC(=O)NCCCCO)nc3n2)cc1 [Compound 58, hydrochloride]                 =           0.763
3  CCNC(=O)Nc1ccc2ncc(Nc3ccc(C)c(NS(C)(=O)=O)c3)nc2n1                 =             9.6
4  CCNC(=O)Nc1ccc2ncc(Nc3ccc(NC(C)=O)cc3)nc2n1                 =            16.5
5  CCNC(=O)Nc1ccc2ncc(-c3ccc(NC(=O)OCCOC)cc3)nc2n1                 >             100

----------
- target.entity: p38alpha (Homo sapiens)
- Construct: in some cases as full-length kinases, in some cases as truncated fragments
- Sequence (Q16539 whole entry, the tested form may be a part): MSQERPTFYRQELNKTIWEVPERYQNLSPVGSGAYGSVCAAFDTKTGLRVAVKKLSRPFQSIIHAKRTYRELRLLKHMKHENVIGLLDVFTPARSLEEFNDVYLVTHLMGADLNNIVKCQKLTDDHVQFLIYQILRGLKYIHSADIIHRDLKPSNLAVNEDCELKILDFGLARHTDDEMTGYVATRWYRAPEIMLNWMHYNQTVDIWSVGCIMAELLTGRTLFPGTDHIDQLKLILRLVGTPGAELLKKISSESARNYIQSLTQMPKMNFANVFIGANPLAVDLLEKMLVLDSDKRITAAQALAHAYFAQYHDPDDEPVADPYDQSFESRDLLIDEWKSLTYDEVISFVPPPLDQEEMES
- assay.summary: Cell-free kinase assay (ALPHA technology), p38alpha
- stated.conditions: at 10 μM or 100 μM* ATP, recombinant human kinase
pIC50: −log10 of the molar value.
reported.endpoint: pIC50

>>> print(df.to_string())
                               input_smiles  reported_endpoint  result
0  CCNC(=O)Nc1ccc2ncc(Nc3ccc(CN4CCCCC4)cc3)nc2n1              pIC50  < 4.00
1  CCNC(=O)Nc1ccc2ncc(Nc3cccc(C(=O)NC)c3)nc2n1              pIC50    4.74
2  CCNC(=O)Nc1ccc2ncc(-c3ccc(OC(=O)N(CC)CC)cc3)nc2n1              pIC50    5.06
3     C=CCONC(=O)Nc1ccc2ncc(-c3ccccc3)nc2n1              pIC50  < 4.00
4  CCNC(=O)Nc1ccc2ncc(Nc3ccc(S(C)(=O)=O)cc3)nc2n1              pIC50  < 4.00
5  CCNC(=O)Nc1ccc2ncc(Nc3ccc(C)c(NS(C)(=O)=O)c3)nc2n1              pIC50    5.40
6        CONC(=O)Nc1ccc2ncc(-c3ccccc3)nc2n1              pIC50  < 4.00
7  CCNC(=O)Nc1ccc2ncc(-c3ccc(CN4CCOCC4)cc3)nc2n1              pIC50  < 4.00
8  CONC(=O)Nc1ccc2ncc(-c3ccc(O)c(OC)c3)nc2n1              pIC50  < 4.00
9  CCNC(=O)Nc1ccc2ncc(-c3ccc(OCCOCCOC)cc3)nc2n1              pIC50  < 4.00

----------
The compounds listed here are annotated with their IC50.
- target.entity: PI3Kalpha (Homo sapiens, UniProt P42336)
- Construct: in some cases as full-length kinases, in some cases as truncated fragments; purchased Upstate 14-602
- Sequence (P42336 whole entry, the tested form may be a part): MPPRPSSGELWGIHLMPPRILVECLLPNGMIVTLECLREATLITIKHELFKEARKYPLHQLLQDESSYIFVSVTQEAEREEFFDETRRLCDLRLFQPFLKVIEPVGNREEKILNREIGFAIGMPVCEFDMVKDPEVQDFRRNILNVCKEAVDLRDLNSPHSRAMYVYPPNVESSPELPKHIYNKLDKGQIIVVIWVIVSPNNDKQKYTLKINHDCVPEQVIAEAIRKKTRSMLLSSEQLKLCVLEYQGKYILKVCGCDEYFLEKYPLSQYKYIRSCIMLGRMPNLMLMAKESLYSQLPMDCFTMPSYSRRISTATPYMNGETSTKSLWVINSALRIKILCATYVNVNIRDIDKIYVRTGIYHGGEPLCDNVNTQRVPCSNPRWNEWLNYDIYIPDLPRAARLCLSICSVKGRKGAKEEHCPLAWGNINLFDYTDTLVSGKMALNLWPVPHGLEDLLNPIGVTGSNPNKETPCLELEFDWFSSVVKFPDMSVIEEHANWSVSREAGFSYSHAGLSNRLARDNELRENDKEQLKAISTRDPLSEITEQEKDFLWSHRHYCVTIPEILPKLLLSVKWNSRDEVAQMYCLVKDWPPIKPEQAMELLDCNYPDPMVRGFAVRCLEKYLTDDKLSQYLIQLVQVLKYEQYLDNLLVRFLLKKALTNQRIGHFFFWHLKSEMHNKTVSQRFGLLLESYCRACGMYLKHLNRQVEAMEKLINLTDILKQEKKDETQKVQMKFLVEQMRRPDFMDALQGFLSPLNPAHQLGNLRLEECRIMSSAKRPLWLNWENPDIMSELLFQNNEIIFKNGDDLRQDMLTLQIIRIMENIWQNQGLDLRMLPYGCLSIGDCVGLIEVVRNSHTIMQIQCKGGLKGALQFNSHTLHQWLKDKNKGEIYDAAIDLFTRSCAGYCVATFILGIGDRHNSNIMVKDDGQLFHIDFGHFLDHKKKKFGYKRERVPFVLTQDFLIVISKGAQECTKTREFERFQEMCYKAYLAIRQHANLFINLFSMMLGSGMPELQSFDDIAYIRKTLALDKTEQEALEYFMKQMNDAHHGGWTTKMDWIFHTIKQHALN
- Sequence (P27986 whole entry partner, the tested form may be a part): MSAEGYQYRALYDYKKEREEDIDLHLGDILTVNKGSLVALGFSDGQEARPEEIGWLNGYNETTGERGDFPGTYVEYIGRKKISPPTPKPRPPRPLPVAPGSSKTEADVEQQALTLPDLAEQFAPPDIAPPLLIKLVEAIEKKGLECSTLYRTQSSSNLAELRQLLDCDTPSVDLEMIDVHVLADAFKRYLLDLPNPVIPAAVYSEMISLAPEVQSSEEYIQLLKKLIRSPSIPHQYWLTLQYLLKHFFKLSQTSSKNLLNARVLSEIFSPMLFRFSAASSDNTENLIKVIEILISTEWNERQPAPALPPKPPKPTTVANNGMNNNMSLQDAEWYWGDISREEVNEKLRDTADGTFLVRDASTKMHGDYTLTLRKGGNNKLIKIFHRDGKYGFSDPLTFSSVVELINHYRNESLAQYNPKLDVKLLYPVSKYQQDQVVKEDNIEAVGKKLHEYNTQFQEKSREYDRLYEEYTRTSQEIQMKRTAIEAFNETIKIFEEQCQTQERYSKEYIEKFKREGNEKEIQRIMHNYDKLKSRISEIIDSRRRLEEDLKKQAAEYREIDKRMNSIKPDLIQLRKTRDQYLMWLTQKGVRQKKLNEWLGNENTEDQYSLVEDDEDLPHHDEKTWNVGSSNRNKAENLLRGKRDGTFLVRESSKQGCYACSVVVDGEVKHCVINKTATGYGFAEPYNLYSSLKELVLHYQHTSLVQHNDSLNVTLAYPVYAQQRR
- assay.summary: Cell-free kinase assay (ALPHA technology), PI3K-ALPHA
- Format: biochemical
- stated.conditions: 100 μM ATP, recombinant human kinase
reported.endpoint: IC50

>>> print(df.to_string())
                               input_smiles    result
0  CCNC(=O)Nc1ccc2ncc(-c3ccc(OC(=O)OCCOC)c(OC)c3)nc2n1   1300 nM
1  CCNC(=O)Nc1ccc2ncc(Nc3ccc(S(C)(=O)=O)cc3)nc2n1   1100 nM
2  CCOP(=O)(CCCCNC(=O)Nc1ccc2ncc(-c3ccc(O)c(OC)c3)nc2n1)OCC  10700 nM
3  CCNC(=O)Nc1ccc2ncc(Nc3cccc(C(=O)NC)c3)nc2n1    683 nM
4  CCNC(=O)Nc1ccc(-c2cnc3ccc(NC(=O)NCC)nc3n2)cc1   1300 nM
5  CONC(=O)Nc1ccc2ncc(-c3ccc(O)c(OC)c3)nc2n1   1500 nM
6  CCNC(=O)Nc1ccc2ncc(-c3cccc(OC(=O)OCCOC)c3)nc2n1   3300 nM
7  CCNC(=O)Nc1ccc2ncc(-c3ccc(OC(=O)OCC(C)C)cc3)nc2n1  11800 nM
8  CCNC(=O)Nc1ccc2ncc(-c3ccc(OCCOCCOC)cc3)nc2n1   2300 nM
